Dear all, I have gathered published pKi values for Sodium-dependent serotonin transporter (Homo sapiens); the list follows.
Please express pKi as -log10 of the molar concentration.

Return reported pKi. Input compound: O=C(O)/C=C/C(=O)O.c1ccc(CCCOc2ncccc2OC[C@H]2CCCNC2)cc1
8.00

Return reported pKi. Input compound: COc1cccc(C2CN(C)Cc3cc(OCC4CCNCC4)ccc32)c1 (stereo not drawn)
8.00

Return reported pKi. Input compound: COc1ccc(C2CN(C)Cc3cc(OCCCN4CCCC(O)C4)ccc32)cc1 (mixture of isomers)
8.52

Return reported pKi. Input compound: Clc1ccc([C@@H]2CN3CCC[C@H]3c3cc(OCCCN4CCCCC4)ccc32)cc1Cl (relative stereo)
8.40

Return reported pKi. Input compound: COc1ccc(C2CN(C)Cc3cc(OCCCN4CCN(C(C)C)CC4)ccc32)cc1 (stereo not drawn)
8.70

Return reported pKi. Input compound: COc1ccc(Oc2ncccc2OC[C@H]2CCCNC2)cc1
5.14

----------
Dear all, I have gathered published log10(Ki) values for Sodium-dependent serotonin transporter (Homo sapiens); the list follows.
Field: value | Transform: log10 | Quantity: Ki | Unit: nM

Here's what some known entries look like.
{"columns": ["Molecule", "log10(Ki)"],
 "data": [
  ["COc1ccc(C2CN(C)Cc3cc(OCCCN4CCCC(F)(F)C4)ccc32)cc1 (racemic)", 0.90],
  ["CCN(CC)CCCOc1cc2c(cn1)C(c1ccc(OC)cc1)CN(C)C2 (stereo not drawn)", 1.82],
  ["O=C(c1cccc(Cl)c1Cl)N(C1CCCC1)[C@H]1CCNC1", 0.70],
  ["COc1cccc(C2CN(C)Cc3cc(OCC4CCN(C(C)C)CC4)ccc32)c1 (stereo not drawn)", 1.04],
  ["CN1Cc2cc(OCCCN3CCCCC3)ncc2C(c2ccc(F)c(Cl)c2)C1 (stereo not drawn)", 2.17]
]}

Now for another entry.
Return reported log10(Ki). Input molecule: Cc1ccc(Cl)c(Oc2ncccc2OC[C@H]2CCCNC2)c1.O=C(O)/C=C/C(=O)O
3.68

----------
Dear all, I have gathered published pKi values for Sodium-dependent serotonin transporter (Homo sapiens); the list follows.
Please express pKi as -log10 of the molar concentration.

Here's what some known entries look like.
{"columns": ["Molecule", "Value"],
 "data": [
  ["C#Cc1ccc([C@H]2CN3CCC[C@H]3c3cc(OCCCN4CCCCC4)ccc32)cc1 (relative stereo)", 9.10],
  ["c1cnc(OC2CCCCC2)c(OC[C@H]2CCCNC2)c1", 5.21],
  ["FC(F)(F)c1ccccc1COc1ccc(Cl)cc1OC1CNC1", 7.54],
  ["FC(F)(F)Oc1ccc(C2CNCc3cc(OCCCN4CCCCC4)ncc32)cc1 (stereo not shown)", 7.15],
  ["CN(C)CCC(Nc1ccccc1)c1ccc(OCCCN2CCCCC2)cc1 (stereo not shown)", 6.82]
]}

Tell me its pKi on Sodium-dependent serotonin transporter (Homo sapiens): c1ccc(OC(CCN2CCCC2)c2ccc(OCCCN3CCCCC3)cc2)cc1 (stereo not shown)
5.40

Tell me its pKi on Sodium-dependent serotonin transporter (Homo sapiens): CC(C)Oc1ccc(-c2ccc(F)cc2CO[C@H]2CCNC2)cc1
6.41

Tell me its pKi on Sodium-dependent serotonin transporter (Homo sapiens): Cc1ccc(F)cc1-c1nc(N2CCNCC2)nc2cc(F)ccc12
6.72

----------
Dear all, I have gathered published Ki values for Sodium-dependent serotonin transporter (Homo sapiens, UniProt P31645); the list follows.
Quick reminder: number only, in nM, skip the unit.

Here's what some known entries look like.
{"columns": ["Molecule", "Attribute Measured", "Value"],
 "data": [
  ["CN(C)CCC(Oc1ccccc1)c1ccc(C#CCCN2CCCCC2)cc1 (centres unmarked)", "Ki", 29],
  ["Cc1ccc(OC[C@H]2CCCNC2)c(Oc2cccc3c2CCCC3)n1", "Ki", 1900],
  ["Clc1ccc(OCc2ccncc2)c(OC2CNC2)c1", "Ki", 464]
]}

Tell me its Ki on Sodium-dependent serotonin transporter (Homo sapiens, UniProt P31645): Clc1ccc2c(c1)CC(Oc1ccc(Cl)cc1OC1CNC1)C2 (centres unmarked)
75

Tell me its Ki on Sodium-dependent serotonin transporter (Homo sapiens, UniProt P31645): COc1ccc(C2CN(C)Cc3cc(OC4CCN(C(C)C)CC4)ccc32)cc1 (centres unmarked)
10

----------
Dear all, I have gathered published Ki values for Sodium-dependent serotonin transporter (Homo sapiens, UniProt P31645); the list follows.
Flag rule - Ki less than 40 nM flags MET; the remaining entries get NOT MET.

Completed entries (count: 5):
{"columns": ["Compound", "Category Label"],
 "data": [
  ["FC(F)(F)Oc1ccccc1O[C@@H](c1ccccn1)[C@H]1CCCNC1", "NOT MET"],
  ["Cc1ccc(OC[C@H]2CCCNC2)c(Oc2ccc(Cl)cc2F)n1", "MET"],
  ["COc1ccc(F)c(O[C@@H](C2CC2)[C@H]2CCNC2)c1Cl", "MET"],
  ["CC(C)CC(Oc1c(F)ccc(F)c1Cl)C1CCNC1 (stereo not drawn)", "MET"],
  ["Clc1ccc(OCc2ccccn2)c(OC2CNC2)c1", "NOT MET"]
]}

I'd appreciate it if you could check whether CSc1ccc(C2CN(C)Cc3cc(OC4CCN(C(C)C)CC4)ccc32)cc1 (stereo not drawn) has Ki smaller than 40 nM.
MET

I'd appreciate it if you could check whether CCC[C@@H](Oc1ccc(Cl)cc1)[C@@H]1CCNC1 has Ki smaller than 40 nM.
MET

I'd appreciate it if you could check whether CC(C)C[C@H](Oc1cc(F)cc(Cl)c1)[C@H]1CCNC1 has Ki smaller than 40 nM.
MET

I'd appreciate it if you could check whether FC(F)(F)c1ccc(COc2ccc(Br)cc2OC2CCNCC2)o1 has Ki smaller than 40 nM.
NOT MET

----------
Dear all, I have gathered published log10 of Ki values for UniProtKB P31645; the list follows.
Field: value | Transform: log10 | Quantity: Ki | Unit: nM

Here's what some known entries look like.
{"columns": ["Compound", "Value"],
 "data": [
  ["COc1ccc(C2CNCc3cc(OCCCN4CCC(F)(F)CC4)ncc32)cc1 (centres unmarked)", 1.71],
  ["Cc1ccc(OC[C@H]2CCCNC2)c(Oc2ccc(F)cc2F)n1", 1.86],
  ["N#Cc1cc(F)ccc1OCCCN1CC[C@H]2[C@@H](C1)c1cccc3c1N2CC(=O)N3", 1.54],
  ["Clc1ccc(-c2ccccc2CO[C@H]2CCNC2)cc1Cl", 1.26]
]}

Return reported log10 of Ki. Input compound: O=C(O)/C=C/C(=O)O.c1ccc(CCOc2ncccc2OC[C@H]2CCCNC2)cc1
3.57

Return reported log10 of Ki. Input compound: COc1ccc(C2CN(C)Cc3cc(C#CCCN4CCOCC4)ccc32)cc1 (centres unmarked)
0.95

Return reported log10 of Ki. Input compound: Fc1ccc(-c2ccc(F)c(F)c2)c(CO[C@H]2CCNC2)c1
2.03

Return reported log10 of Ki. Input compound: FC(F)(F)c1ccc(-c2ccccc2CO[C@H]2CCNC2)cc1
2.30

Return reported log10 of Ki. Input compound: Fc1ccc(-c2ccc(F)cc2CO[C@H]2CCNC2)cc1
2.16

Return reported log10 of Ki. Input compound: Fc1cccc(F)c1Oc1ncccc1OC[C@H]1CCCNC1.O=C(O)/C=C/C(=O)O
3.52

----------
Dear all, I have gathered published Ki values for Sodium-dependent serotonin transporter (Homo sapiens); the list follows.
Quick reminder: number only, in nM, skip the unit.

Here's what some known entries look like.
{"columns": ["Compound", "Ki (nM)"],
 "data": [
  ["Clc1ccc(OCc2cccnc2)c(OC2CNC2)c1", 89],
  ["CN(C)CCC(Oc1ccccc1)c1cccc(C#CCCN2CCCCC2)c1 (centres unmarked)", 154],
  ["FC1(F)Oc2ccc(COc3ccc(Cl)cc3OC3CNC3)cc2O1", 121]
]}

Tell me its Ki on Sodium-dependent serotonin transporter (Homo sapiens): COc1ccc(-c2ccc(F)cc2CO[C@H]2CCNC2)c(OC)c1
1400

----------
Dear all, I have gathered published pKi values for Sodium-dependent serotonin transporter (Homo sapiens); the list follows.
Please express pKi as -log10 of the molar concentration.

Here's what some known entries look like.
{"columns": ["Molecule", "Assay Target", "pKi"],
 "data": [
  ["COc1ccc(C2CN(C)Cc3cc(CCCCN4CCOCC4)ccc32)cc1 (stereo not shown)", "Sodium-dependent serotonin transporter (Homo sapiens)", 8.10],
  ["Cc1ccc(OC[C@H]2CCCNC2)c(Oc2ccc(Cl)c(F)c2)n1", "Sodium-dependent serotonin transporter (Homo sapiens)", 7.00],
  ["c1ccc(-c2cccc3ccccc23)c(CO[C@H]2CCNC2)c1", "Sodium-dependent serotonin transporter (Homo sapiens)", 6.57],
  ["COc1ccc(F)cc1O[C@@H](c1ccccn1)[C@H]1CCCNC1", "Sodium-dependent serotonin transporter (Homo sapiens)", 5.34]
]}

Tell me its pKi on Sodium-dependent serotonin transporter (Homo sapiens): Clc1cccc(CCOc2ccc(Cl)cc2OC2CNC2)c1
7.54

Tell me its pKi on Sodium-dependent serotonin transporter (Homo sapiens): CC[C@H](Oc1cccnc1Oc1ccccc1)[C@H]1CCCNC1
5.69

Tell me its pKi on Sodium-dependent serotonin transporter (Homo sapiens): CC(C)[C@H]1CNCCN1c1nc(-c2cccc(F)c2F)c2ccccc2n1
6.73

Tell me its pKi on Sodium-dependent serotonin transporter (Homo sapiens): COc1cc(Cl)ccc1Oc1cc(F)ccc1OC[C@H]1CCCNC1
6.96

Tell me its pKi on Sodium-dependent serotonin transporter (Homo sapiens): COc1ccc(C2CN(C)Cc3cc(OCCCN4CCC4)ccc32)cc1 (stereo not shown)
8.40

Tell me its pKi on Sodium-dependent serotonin transporter (Homo sapiens): CNCCC(Oc1ccc(Cl)c(Cl)c1)c1ccc(OCCCN2CCCCC2)cc1 (stereo not shown)
9.10

Tell me its pKi on Sodium-dependent serotonin transporter (Homo sapiens): CNCc1cc(C#CCCNC2CC2)ccc1Oc1ccc(Cl)c(Cl)c1
8.85
